# merged literature set: pIC50 with 1-acyl-sn-glycerol-3-phosphate acyltransferase beta (Homo sapiens)
API: returns pIC50 as number; meaning -log10 of concentration in mol/L.

Answered examples (10):
{"Structure Notation": "COC(=O)Nc1ccc(Cl)c(-c2nc3cc(Cl)ccc3s2)c1", "Test System": "1-acyl-sn-glycerol-3-phosphate acyltransferase beta (Homo sapiens)", "Parameter": "pIC50", "Measurement": 7.40}
{"Structure Notation": "C#CCOC(=O)Nc1ccc(Cl)c(-c2nc3cc(C(F)(F)F)ccc3o2)c1", "Test System": "1-acyl-sn-glycerol-3-phosphate acyltransferase beta (Homo sapiens)", "Parameter": "pIC50", "Measurement": 6.85}
{"Structure Notation": "Nc1nc(Nc2ccc3c(c2)OCO3)nc(-c2cc(Cl)ccc2Cl)n1", "Test System": "1-acyl-sn-glycerol-3-phosphate acyltransferase beta (Homo sapiens)", "Parameter": "pIC50", "Measurement": 6.52}
{"Structure Notation": "C#CCOC(=O)Nc1ccc(Cl)c(-c2nc3cc(Cl)ccc3n2C)c1", "Test System": "1-acyl-sn-glycerol-3-phosphate acyltransferase beta (Homo sapiens)", "Parameter": "pIC50", "Measurement": 7.22}
{"Structure Notation": "COc1ccc(Cl)cc1-c1nc(N)nc(Nc2ccc(Br)cc2)n1", "Test System": "1-acyl-sn-glycerol-3-phosphate acyltransferase beta (Homo sapiens)", "Parameter": "pIC50", "Measurement": 7.12}
{"Structure Notation": "C#CCOC(=O)Nc1ccc(Cl)c(-c2nc3ccccc3o2)c1", "Test System": "1-acyl-sn-glycerol-3-phosphate acyltransferase beta (Homo sapiens)", "Parameter": "pIC50", "Measurement": 7.30}
{"Structure Notation": "Cc1ccc(Cl)cc1-c1nc(N)nc(Nc2ccc3c(c2)OCO3)n1", "Test System": "1-acyl-sn-glycerol-3-phosphate acyltransferase beta (Homo sapiens)", "Parameter": "pIC50", "Measurement": 6.70}
{"Structure Notation": "CNC(=O)Nc1ccc(Cl)c(-c2nc3cc(C)ccc3o2)c1", "Test System": "1-acyl-sn-glycerol-3-phosphate acyltransferase beta (Homo sapiens)", "Parameter": "pIC50", "Measurement": 5.40}
{"Structure Notation": "Cc1ccc(Cl)cc1-c1nc(Cl)nc(Nc2ccc3cn[nH]c3c2)n1", "Test System": "1-acyl-sn-glycerol-3-phosphate acyltransferase beta (Homo sapiens)", "Parameter": "pIC50", "Measurement": 8.40}
{"Structure Notation": "CCOc1ccc(Cl)cc1-c1nc(N)nc(Nc2ccc([N+](=O)[O-])cc2)n1", "Test System": "1-acyl-sn-glycerol-3-phosphate acyltransferase beta (Homo sapiens)", "Parameter": "pIC50", "Measurement": 6.92}

Please report pIC50 for the following molecule: `Clc1nc(Nc2ccccc2)nc(Nc2ccc3c(c2)CCC3)n1`
6.19

Please report pIC50 for the following molecule: `C#CCCC(=O)Nc1ccc(Cl)c(-c2nc3cc(Cl)ccc3s2)c1`
7.40

Please report pIC50 for the following molecule: `CNc1cc(Nc2nc(N)nc(-c3cc(Cl)ccc3C)n2)ccc1Cl`
6.80

Please report pIC50 for the following molecule: `CNc1ccc(Cl)cc1-c1nc(N)nc(Nc2ccc(Cl)cc2)n1`
5.82

Please report pIC50 for the following molecule: `CC(C)Oc1ccc(Cl)cc1-c1nc(N)nc(Nc2ccc(Cl)cc2)n1`
6.21

Please report pIC50 for the following molecule: `CCc1nc(Nc2ccc(Br)cc2)nc(-c2cc(Cl)ccc2C)n1`
6.15

###

# merged literature set: pIC50 with 1-acyl-sn-glycerol-3-phosphate acyltransferase beta (Homo sapiens, UniProt O15120)
API: returns pIC50 as number; meaning -log10 of concentration in mol/L.

Answered examples (2):
{"Compound": "CC#CCOC(=O)Nc1ccc(Cl)c(-c2nc3cc(Cl)ccc3s2)c1", "pIC50": 7.60}
{"Compound": "Nc1nc(Nc2ccc(CO)cc2)nc(-c2cc(Cl)ccc2Cl)n1", "pIC50": 6.36}

Please report pIC50 for the following compound: `C#CCOC(=O)Nc1ccc(C)c(-c2nc3cc(C(F)(F)F)ccc3s2)c1`
7.40

Please report pIC50 for the following compound: `Cc1ccc(Cl)cc1-c1nc(N)nc(Nc2ccc(COC(=O)[C@@H](N)CCCNC(=N)N)cc2)n1`
6.01

Please report pIC50 for the following compound: `CCCNc1nc(Cl)nc(Nc2ccc(Cl)cc2)n1`
6.80

Please report pIC50 for the following compound: `N#CCC(=O)Nc1ccc(Cl)c(-c2nc3cc(Cl)ccc3s2)c1`
7.82

Please report pIC50 for the following compound: `CCC(=O)Nc1ccc(Cl)c(-c2nc3cc(Cl)ccc3o2)c1`
6.46

Please report pIC50 for the following compound: `Cc1ccc(Cl)cc1-c1ncnc(Nc2ccc(Cl)cc2)n1`
6.62

Please report pIC50 for the following compound: `CCOc1ccc(Cl)cc1-c1nc(N)nc(Nc2ccc(C)cc2)n1`
5.64

Please report pIC50 for the following compound: `Cc1ccc(Cl)cc1-c1nc(N)nc(Nc2ccc(Cl)cc2)n1`
7.26

Please report pIC50 for the following compound: `CCOc1ccc(Cl)cc1-c1nc(N)nc(Nc2ccc3cn[nH]c3c2)n1`
6.22

Please report pIC50 for the following compound: `CCOc1ccc(Cl)cc1-c1nc(N)nc(Nc2ccc(CO)cc2)n1`
5.74

Please report pIC50 for the following compound: `C#CCOC(=O)Nc1ccc(Cl)c(-c2nc3cc(C(F)(F)F)ccc3s2)c1`
7.82

Please report pIC50 for the following compound: `N#CCC(=O)Nc1ccc(Cl)c(-c2nc3cc(Cl)ccc3o2)c1`
6.57

Please report pIC50 for the following compound: `CSc1nc(Nc2ccccc2)nc(Nc2ccc(Cl)cc2)n1`
5.51

###

pIC50: −log10 of the molar value.
# merged literature set: pIC50 with UniProtKB O15120
# if value of pIC50 reaches 7, tag TRUE; if it stays below, tag FALSE

The following compounds have reported results that may help.
{"Compound": "CCOc1ccc(Cl)cc1-c1nc(N)nc(Nc2ccc(Cl)c(C(=O)NC)c2)n1", "Cat": "FALSE"}
{"Compound": "Nc1nc(Nc2ccc(Cl)cc2)nc(-c2cc(Cl)ccc2Cl)n1", "Cat": "TRUE"}
{"Compound": "COC(=O)Nc1ccc(C)c(-c2nc3cc(C)ccc3o2)c1", "Cat": "FALSE"}
{"Compound": "Nc1nc(Nc2ccc(Br)cc2)nc(-c2cc(Cl)ccc2C(F)(F)F)n1", "Cat": "FALSE"}
{"Compound": "COC(=O)Nc1ccc(Cl)c(-c2nc3cc(C)ccc3n2C)c1", "Cat": "FALSE"}
{"Compound": "C#CCOC(=O)Nc1ccc(Cl)c(-c2nc3cc(Cl)ccc3s2)c1", "Cat": "TRUE"}
{"Compound": "C#CCCOC(=O)Nc1ccc(Cl)c(-c2nc3cc(Cl)ccc3s2)c1", "Cat": "TRUE"}
{"Compound": "C#CCOC(=O)Nc1ccc(Cl)c(-c2nc3cc(C)ccc3o2)c1", "Cat": "FALSE"}

Reported pIC50 at or above 7? `Cc1ccc(Cl)cc1-c1nc(Cl)nc(Nc2ccc(Br)cc2)n1`
TRUE

Reported pIC50 at or above 7? `COC(=O)Nc1ccc(Cl)c(-c2nc3ccccc3o2)c1`
FALSE

Reported pIC50 at or above 7? `Clc1nc(Nc2ccccc2)nc(Nc2ccc3c(c2)OCO3)n1`
FALSE

Reported pIC50 at or above 7? `Clc1ccc(Nc2nc(Cl)nc(Nc3ccc4c(c3)OCO4)n2)cc1`
FALSE

Reported pIC50 at or above 7? `CCC(=O)Nc1ccc(F)c(-c2nc3cc(C)ccc3o2)c1`
FALSE

Reported pIC50 at or above 7? `Clc1nc(Nc2ccccc2)nc(Nc2ccc3c(c2)OCCO3)n1`
FALSE

Reported pIC50 at or above 7? `Cc1ccc(Nc2nc(N)nc(-c3cc(Cl)ccc3C)n2)cc1`
FALSE

Reported pIC50 at or above 7? CCOc1ccc(Cl)cc1-c1nc(N)nc(Nc2ccc(C(O)CO)cc2)n1 (centres unmarked)
FALSE

Reported pIC50 at or above 7? `CCc1cccc(Nc2nc(N)nc(-c3cc(Cl)ccc3C)n2)c1`
FALSE
